Values from patent US20250289893A1

Quick list: Fluorescence Intensity Geomean (normalized to background) per entry.
testSystem: T1, human CD1c expressed on HEK-293 cells (human, UniProt P29017 18-333; P61769 21-119)
T1 construct: also called HEK - CD1c
assayMethodText: flow cytometry, HEK-293 cells, 1 µg/ml antibody
Lab book: enter the figure in fold over background, no units written.

Below: 3 binders and their reported Fluorescence Intensity Geomean (normalized to background).
binder: 110 (VR12112) (antibody, V domains shown, also called OX110; antibody 110) VH: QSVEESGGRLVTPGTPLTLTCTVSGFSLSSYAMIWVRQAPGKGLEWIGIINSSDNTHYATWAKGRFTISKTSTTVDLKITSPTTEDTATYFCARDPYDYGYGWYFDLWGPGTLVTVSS VL: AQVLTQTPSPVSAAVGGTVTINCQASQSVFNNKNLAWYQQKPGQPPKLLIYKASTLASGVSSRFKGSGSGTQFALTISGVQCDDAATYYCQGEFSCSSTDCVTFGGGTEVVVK
unitOfMeasurement: fold over background
measurement: 1.1
--
binder: 111 (VR12113) (antibody, V domains shown, also called OX111) VH: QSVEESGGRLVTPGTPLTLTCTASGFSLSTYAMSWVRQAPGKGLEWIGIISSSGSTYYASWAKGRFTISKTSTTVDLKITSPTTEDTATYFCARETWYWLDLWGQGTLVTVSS VL: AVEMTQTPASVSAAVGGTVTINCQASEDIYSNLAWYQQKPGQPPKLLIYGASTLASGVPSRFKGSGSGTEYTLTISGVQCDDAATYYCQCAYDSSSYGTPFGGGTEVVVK
unitOfMeasurement: fold over background
measurement: 1.1
--
binder: 77A (VR11851) (antibody, V domains shown, also called OX77a; antibody 77a) VH: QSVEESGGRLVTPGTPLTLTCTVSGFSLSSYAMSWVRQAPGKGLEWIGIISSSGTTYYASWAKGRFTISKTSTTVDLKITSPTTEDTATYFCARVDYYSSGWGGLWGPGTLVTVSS VL: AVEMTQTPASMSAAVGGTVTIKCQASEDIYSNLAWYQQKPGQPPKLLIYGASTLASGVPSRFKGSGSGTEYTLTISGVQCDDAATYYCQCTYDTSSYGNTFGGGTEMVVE
unitOfMeasurement: fold over background
measurement: 1

# context switch: different binder, same Fluorescence Intensity Geomean (normalized to background)
Per the record, 116 (VR12117) (antibody, V domains shown, also called OX116) VH: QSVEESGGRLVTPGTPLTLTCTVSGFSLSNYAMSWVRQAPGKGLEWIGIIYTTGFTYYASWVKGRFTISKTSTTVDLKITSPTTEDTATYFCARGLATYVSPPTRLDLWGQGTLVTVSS VL: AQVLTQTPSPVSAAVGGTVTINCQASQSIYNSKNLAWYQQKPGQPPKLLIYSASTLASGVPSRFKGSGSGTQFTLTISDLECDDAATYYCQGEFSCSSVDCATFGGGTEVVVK has Fluorescence Intensity Geomean (normalized to background) of 1.1
